Attribution: patent US20240336572A1

# testedOn: AMPK 111 (Homo sapiens, UniProt Q13131+Q9Y478)
# Construct: open reading frames encoding the full-length α1, β1 and δ1 subunits of human AMPK; made in house; host or cells: E. coli BL21-CodonPlus (DE3)-RIPL, pET-14b
# Sequence (Q13131 whole entry): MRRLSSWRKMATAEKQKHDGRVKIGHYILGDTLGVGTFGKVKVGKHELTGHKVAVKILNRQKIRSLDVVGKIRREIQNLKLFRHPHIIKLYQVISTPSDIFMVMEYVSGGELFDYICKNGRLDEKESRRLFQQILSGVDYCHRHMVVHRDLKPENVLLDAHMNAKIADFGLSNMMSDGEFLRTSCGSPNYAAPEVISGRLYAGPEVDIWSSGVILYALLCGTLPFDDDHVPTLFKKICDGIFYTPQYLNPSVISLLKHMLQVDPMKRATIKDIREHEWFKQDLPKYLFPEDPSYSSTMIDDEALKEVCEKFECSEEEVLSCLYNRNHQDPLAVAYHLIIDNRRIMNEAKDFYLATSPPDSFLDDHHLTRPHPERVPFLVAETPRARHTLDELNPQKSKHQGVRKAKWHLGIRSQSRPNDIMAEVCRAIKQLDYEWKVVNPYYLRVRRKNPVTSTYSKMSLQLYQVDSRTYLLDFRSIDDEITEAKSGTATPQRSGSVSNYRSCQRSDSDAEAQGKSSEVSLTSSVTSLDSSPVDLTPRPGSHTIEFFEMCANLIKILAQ
# Sequence (Q9Y478 whole entry): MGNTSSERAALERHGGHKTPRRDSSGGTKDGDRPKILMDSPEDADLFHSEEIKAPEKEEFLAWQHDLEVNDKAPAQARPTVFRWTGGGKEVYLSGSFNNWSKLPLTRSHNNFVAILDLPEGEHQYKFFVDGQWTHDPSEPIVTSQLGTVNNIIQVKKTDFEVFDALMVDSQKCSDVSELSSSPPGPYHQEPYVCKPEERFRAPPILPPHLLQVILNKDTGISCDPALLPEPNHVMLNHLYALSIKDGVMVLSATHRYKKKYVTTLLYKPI
# Sequence (P54619 whole entry partner): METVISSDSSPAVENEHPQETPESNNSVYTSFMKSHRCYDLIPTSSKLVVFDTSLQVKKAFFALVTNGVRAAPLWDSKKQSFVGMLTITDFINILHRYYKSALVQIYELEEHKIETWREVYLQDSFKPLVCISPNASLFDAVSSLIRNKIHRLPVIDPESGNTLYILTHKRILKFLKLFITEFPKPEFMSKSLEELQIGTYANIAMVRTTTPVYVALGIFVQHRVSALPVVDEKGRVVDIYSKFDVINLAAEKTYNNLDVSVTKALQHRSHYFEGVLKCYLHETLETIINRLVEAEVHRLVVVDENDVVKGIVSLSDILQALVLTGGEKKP
# assayRemarks: Biochemical profiling of AMPK activators by AMPK111 (HTRF/TR-FRET assay, SAMS peptide, PP2A dephosphorylation protection)
# testConditions: phosphorylated AMPK 111; maximal activation
assayMetric: Emax (%)

Look over these answered cases.
{"compound": "COc1ccc(C)c(-c2ccc(-c3cc4c(CCCC(=O)O)n[nH]c4cc3Cl)cc2)c1O", "u": "%", "Emax": 78}
{"compound": "O=C(O)CCc1n[nH]c2cc(Cl)c(-c3ccc(-c4csc(CO)c4)cc3)cc12", "u": "%", "Emax": 76}

(I) O=C(O)CCc1n[nH]c2cc(Cl)c(-c3ccc(-c4ccc(OCCN5CCOCC5)cc4)cc3)cc12
(II) COc1nc(-c2ccc(-c3cc4c(CCC(=O)O)n[nH]c4cc3Cl)cc2)cs1
(III) NC(=O)COc1ccc(-c2ccc(-c3cc4c(CCC(=O)O)n[nH]c4cc3Cl)cc2)cc1
Parameters: sort_field (Emax), sort_dir (desc). Respond with an ordered listing of the labels, as requested. III, I, II

###

# testedOn: AMPK 221 (Homo sapiens, UniProt O43741+P54646)
# Construct: open reading frames encoding the full-length α2, β2 and δ1 subunits of human AMPK; made in house; host or cells: E. coli BL21-CodonPlus (DE3)-RIPL, pET-14b
# Sequence (P54646 whole entry): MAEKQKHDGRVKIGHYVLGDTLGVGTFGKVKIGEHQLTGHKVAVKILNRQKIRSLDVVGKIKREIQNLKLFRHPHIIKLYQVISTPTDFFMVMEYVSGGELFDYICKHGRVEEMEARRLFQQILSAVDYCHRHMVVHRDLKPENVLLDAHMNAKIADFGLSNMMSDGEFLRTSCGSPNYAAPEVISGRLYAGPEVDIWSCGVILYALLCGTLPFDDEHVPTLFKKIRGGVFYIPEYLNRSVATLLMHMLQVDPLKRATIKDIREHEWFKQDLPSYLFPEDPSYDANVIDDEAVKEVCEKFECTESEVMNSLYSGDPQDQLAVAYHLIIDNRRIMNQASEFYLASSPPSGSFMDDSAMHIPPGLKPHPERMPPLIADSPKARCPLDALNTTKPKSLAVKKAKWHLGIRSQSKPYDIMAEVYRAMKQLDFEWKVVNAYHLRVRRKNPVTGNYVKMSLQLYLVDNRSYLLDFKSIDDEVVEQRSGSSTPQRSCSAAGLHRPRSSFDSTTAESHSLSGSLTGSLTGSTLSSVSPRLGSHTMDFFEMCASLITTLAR
# Sequence (O43741 whole entry): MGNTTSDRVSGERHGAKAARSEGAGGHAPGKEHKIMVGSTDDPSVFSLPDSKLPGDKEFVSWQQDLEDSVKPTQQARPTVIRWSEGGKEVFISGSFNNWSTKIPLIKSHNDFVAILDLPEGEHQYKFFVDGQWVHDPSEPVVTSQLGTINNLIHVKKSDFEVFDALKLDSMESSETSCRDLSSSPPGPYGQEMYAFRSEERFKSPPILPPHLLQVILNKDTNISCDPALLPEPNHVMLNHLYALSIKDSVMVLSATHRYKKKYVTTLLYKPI
# Sequence (P54619 whole entry partner): as the sequence (P54619 whole entry partner) above
# assayRemarks: Biochemical profiling of AMPK activators by AMPK221 (HTRF/TR-FRET assay, SAMS peptide, PP2A dephosphorylation protection)
# testConditions: phosphorylated AMPK 221; maximal activation
assayMetric: Emax (%)

Look over these answered cases.
{"mol": "COc1c(Cl)ccc(-c2ccc(-c3cc4c(CCC(=O)O)n[nH]c4cc3Cl)cc2)c1O", "u": "%", "Emax": 63}
{"mol": "COc1ccc(C)c(-c2ccc(-c3cc4c(CCC(=O)O)n[nH]c4cc3Cl)cc2)c1O", "u": "%", "Emax": 57}

(1) O=C(O)CCc1n[nH]c2cc(Cl)c(-c3ccc(-c4ccc(OCCN5CCOCC5)cc4)cc3)cc12
(2) Cc1ccc(-c2ccc(-c3cc4c(CCC(=O)O)n[nH]c4cc3Cl)cc2)s1
// returns 1 or 2 , whichever has the lower Emax Return value: the label identifying the chosen record. 2

###

# testedOn: AMPK 111 (Homo sapiens, UniProt Q13131+Q9Y478)
# Construct: open reading frames encoding the full-length α1, β1 and δ1 subunits of human AMPK
# assayRemarks: Biochemical profiling of AMPK activators by AMPK111 (HTRF/TR-FRET assay, SAMS peptide, PP2A dephosphorylation protection)
# testConditions: phosphorylated AMPK 111 (α1β1δ1 as printed); 11 point dilution, duplicate; 4-parameter fit
pEC50: −log10 of the molar value.
assayMetric: pEC50

{"mol": "O=C(O)CCc1n[nH]c2cc(Cl)c(-c3ccc(-c4ccc5c(c4O)OCC5)cc3)cc12", "assayMetric": "pEC50", "recordedMeasurement": 7.54}
{"mol": "NS(=O)(=O)c1ccc(-c2ccc(-c3cc4c(CCC(=O)O)n[nH]c4cc3Cl)cc2)cc1", "assayMetric": "pEC50", "recordedMeasurement": 7.04}
{"mol": "COc1c(F)ccc(-c2ccc(-c3cc4c(CCC(=O)O)n[nH]c4cc3Cl)cc2)c1O", "assayMetric": "pEC50", "recordedMeasurement": 7.43}
{"mol": "O=C(O)CSc1n[nH]c2cc(Cl)c(-c3ccc(-c4ccccc4O)cc3)cc12", "assayMetric": "pEC50", "recordedMeasurement": 7.28}
{"mol": "Cc1ccc(-c2ccc(-c3cc4c(CCC(=O)O)n[nH]c4cc3Cl)cc2)c(O)c1", "assayMetric": "pEC50", "recordedMeasurement": 6.64}

(a) COCc1ccc(-c2ccc(-c3cc4c(CCC(=O)O)n[nH]c4cc3Cl)cc2)c(O)c1
(b) CSc1ccc(-c2ccc(-c3cc4c(CCC(=O)O)n[nH]c4cc3Cl)cc2)c(O)c1
// returns a or b , whichever has the lower pEC50 Return value: the label identifying the chosen record. b
